# System: T-cells (peripheral blood mononuclear cells)
# Test details: T-cell proliferation assay (PHA-stimulated PBMC, tritiated thymidine incorporation)
# Format: cell-based, human
# Condition parameters: in vitro; compared to substrate (1) and standard prednisolone
Value kind: T-cell proliferation inhibitory activity, result in words

> print(dat)
                               entry.smiles    observed.result
1  CC(=O)O[C@]1(C(C)=O)CC[C@H]2[C@@H]3C[C@@](C)(O)C4=CC(=O)CC[C@]4(C)[C@H]3C(=O)C[C@@]21C  moderately active
2  CC(=O)O[C@]1(C(C)=O)C[C@@H](O)[C@H]2[C@@H]3C[C@H](C)C4=CC(=O)CC[C@]4(C)[C@H]3C(=O)C[C@@]21C  moderately active
3  CC(=O)O[C@]1(C(C)=O)CC[C@H]2[C@@H]3C[C@H](C)C4=CC(=O)CC[C@]4(C)[C@H]3C(=O)C[C@@]21C  potent inhibitors
4  CC(=O)O[C@]1(C(C)=O)C[C@@H](O)[C@H]2[C@@H]3C[C@H](C)C4=CC(=O)CC[C@]4(C)[C@H]3[C@@H](O)C[C@@]21C  potent inhibitors
